# Tested on: thermostable L-ribose isomerase derived from Raoultella ornithinolytica
# Procedure details: L-ribose isomerase activity assay on various aldose substrates (cysteine/carbazole method)
# Type: biochemical
# Condition parameters: aldose as substrate
Measurement label: activity of the enzyme for the substrate (in words)

O=C[C@@H](O)[C@@H](O)[C@H](O)[C@H](O)CO :: exerted activities
O=C[C@@H](O)[C@@H](O)[C@@H](O)[C@H](O)CO :: exerted activities
O=C[C@@H](O)[C@@H](O)[C@H](O)CO :: exerted activities
O=C[C@@H](O)[C@@H](O)[C@@H](O)[C@@H](O)CO :: exerted activities

---

# Test system: thermostable L-ribose isomerase derived from Raoultella ornithinolytica
# Procedure details: L-ribose isomerase activity assay on various aldose substrates (cysteine/carbazole method)
# Type: biochemical
# Condition parameters: activity on L-ribose designated as 100%; aldose as substrate
Measurement label: relative activity to the activity on L-ribose (%)
Number only, in %; omit the unit.

Reported relative activity to the activity on L-ribose ( O=C[C@@H](O)[C@@H](O)[C@@H](O)[C@@H](O)CO ) = 2.2

Reported relative activity to the activity on L-ribose ( O=C[C@@H](O)[C@@H](O)[C@@H](O)CO ) = 100

Reported relative activity to the activity on L-ribose ( O=C[C@@H](O)[C@@H](O)[C@@H](O)[C@H](O)CO ) = 56.9

Reported relative activity to the activity on L-ribose ( O=C[C@@H](O)[C@@H](O)[C@H](O)CO ) = 15.3
